These data points were gathered from patent US7411002B2.

Test system: LPS-induced NF-κB induction in human embryonic kidney 293 cells cotransfected with TLR4, CD14 and MD2
Experiment: Inhibition of LPS induction of NF-κB (seAP reporter) in HEK 293 cells cotransfected with TLR4, CD14 and MD2
Assay type: cell-based
Settings: Homo sapiens, HEK293; inhibition of LPS-induced NF-κB induction, HEK 293 TLR4/CD14/MD2 reporter cells; read-out: NFκβ inhibition IC50 value
Hi there, I'd appreciate the recorded IC50 for every entry that follows.
Write the number in nM without appending the unit.

stdin: Could you please provide reported IC50 for CCCCCCCCCCCCCCCCS(=O)(=O)NCCCNCCCNCCCCNCCCN [MQTS 2383] ? Thanks!
stdout: 200

stdin: Could you please provide reported IC50 for CCCCCCCCCCS(=O)(=O)NCCCNCCCCNCCCN [MQTS 2377] ? Thanks!
stdout: 500

stdin: Could you please provide reported IC50 for CCCCCCCC(=O)NCCCN(CCCNCCCNCCCCNCCCN)CCCNC(=O)CCCCCCC [MQTS 2418] ? Thanks!
stdout: 3170

stdin: Could you please provide reported IC50 for CCCCCCCCCCCCCCCCCCS(=O)(=O)NCCCN(CCCNCCCCNCCCN)CCCNS(=O)(=O)CCCCCCCCCCCCCCCCCC [MQTS 2394] ? Thanks!
stdout: 64000

stdin: Could you please provide reported IC50 for CCCCCCCCS(=O)(=O)NCCCNCCCNCCCN [MQTS 2413] ? Thanks!
stdout: 5560

stdin: Could you please provide reported IC50 for CCCCCCCCCCCCCCCCS(=O)(=O)NCCCCCCCCCCCCN [MQTS 2369] ? Thanks!
stdout: 200000

stdin: Could you please provide reported IC50 for CCCCCCCCCCCCS(=O)(=O)NCCCNCCCNCCCCNCCCN [MQTS 2382] ? Thanks!
stdout: 190

stdin: Could you please provide reported IC50 for CCCCCCCCS(=O)(=O)NCCCN(CCCNCCCNCCCCNCCCN)CCCNS(=O)(=O)CCCCCCCC [MQTS 2389] ? Thanks!
stdout: 300

stdin: Could you please provide reported IC50 for CCCCCCCCS(=O)(=O)NCCCN(CCCNCCCCNCCCN)CCCNS(=O)(=O)CCCCCCCC [MQTS 2406] ? Thanks!
stdout: 669
